- Target Entity: T1, QCP (bacteriophage Qβ coat protein) (bacteriophage Qβ, UniProt P03615 2-133)
- T1 sequence: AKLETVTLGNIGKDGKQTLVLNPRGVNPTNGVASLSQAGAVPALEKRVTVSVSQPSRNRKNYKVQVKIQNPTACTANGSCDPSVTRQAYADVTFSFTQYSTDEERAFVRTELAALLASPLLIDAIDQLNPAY
- Test Method Notes: SPR
Measure: Kd
Please state the value followed by its unit.

Recorded results for 5 binders are shown here.
> print(dat)
                                     binder  reported
1  CCUUUAGCUAAGCUAAUGGAAAAAAAAAAAAAAAAAAAAAAAA (structured_RNA) [A16]   28.9 nM
2  CCAUUAGCUAAGCUAAUGGAAAAAAAAAAAAAAAAAAAAAAAA (structured_RNA) [A14]   17.8 nM
3  CCCUUAGCUAAGCUAAGGUAAAAAAAAAAAAAAAAAAAAAAAA (structured_RNA) [A19]   80.4 nM
4  CCUCUAGCUAAGCUAUAGGAAAAAAAAAAAAAAAAAAAAAAAA (structured_RNA) [A17]   90.8 nM
5  CCCUUAGCUAAGCUAAGUGAAAAAAAAAAAAAAAAAAAAAAAA (structured_RNA) [A18]     16 nM

For CCGUUAGCUAAGCUAAUGGAAAAAAAAAAAAAAAAAAAAAAAA (structured_RNA) [A15] , what is its reported Kd?
86.2 nM
